Overview of reported IC50 across a group of compounds:
# Assay System: human IBAT (Homo sapiens, UniProt Q12908)
# Construct: expressed in transfected cells; host or cells: Baby hamster kidney (BHK) cells, clone H14
# Sequence (Q12908 whole entry): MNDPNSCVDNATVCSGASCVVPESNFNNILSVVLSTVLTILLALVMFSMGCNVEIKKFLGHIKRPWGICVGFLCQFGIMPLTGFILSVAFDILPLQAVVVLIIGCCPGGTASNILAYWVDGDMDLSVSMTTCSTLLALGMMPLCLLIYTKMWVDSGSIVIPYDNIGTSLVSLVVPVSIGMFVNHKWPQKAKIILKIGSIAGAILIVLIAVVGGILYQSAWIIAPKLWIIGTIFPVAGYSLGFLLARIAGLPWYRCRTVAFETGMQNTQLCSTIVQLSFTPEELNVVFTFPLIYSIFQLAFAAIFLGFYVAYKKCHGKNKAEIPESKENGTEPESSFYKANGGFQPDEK
# Protocol: In vitro assay of IBAT-mediated uptake of [14C]-taurocholate (TC) in H14 cells
# Type: cell-based
# Conditions Used: Human TC IC50
Outcome Measure: IC50 (nM)

>>> print(df.to_string())
                                   compound  reading_unit  reading
0  CCCCC1(CC)CS(=O)(=O)c2ccc(N(C)C)cc2C(c2ccccc2)C1O (single isomer, unassigned) [Example 1259]            nM    16500
1  CCCCC1(CC)CS(=O)(=O)c2ccc(N(C)C)cc2C(c2ccccc2)C1O (stereo not shown) [Example 1285]            nM       27
2  CCCCC1(CC)CS(=O)(=O)c2ccc(N(C)C)cc2C(c2ccccc2)C1O (single isomer, unassigned) [Example 1300]            nM     1000
3  CCCCC1(CCCC)CS(=O)(=O)c2ccc(N(C)C)cc2C(c2ccc(CC(=O)N(C)CN(C)C)c(F)c2)C1O (stereo not shown) [Example 1280]            nM      760
